# Test system: RAW264.7
# Assay Overview: Inhibition of TNFalpha production in mouse RAW264.7 cells after 24 hrs by ELISA
# Format: functional, cell-based
# Condition Summary: RAW264.7, 24 h
Experimental Readout: IC50 (nM)
Just the number please, in nM, no unit attached.

compound="C=CCC(Cc1cc2cc(C)ccc2oc1=O)C(=O)NO (stereo not given)" target_desc=RAW264.7 experimental_readout=IC50 observed_value=520
compound=O=C(CCc1cc2ccccc2oc1=O)NO target_desc=RAW264.7 experimental_readout=IC50 observed_value=5640
compound="COc1ccc2oc(=O)c(CC(C)C(=O)NO)cc2c1 (stereo not given)" target_desc=RAW264.7 experimental_readout=IC50 observed_value=220
compound=O=C(CCc1cc2cc(Br)ccc2oc1=O)NO target_desc=RAW264.7 experimental_readout=IC50 observed_value=13000
compound=COc1ccc2oc(=O)c(CCC(=O)NO)cc2c1 target_desc=RAW264.7 experimental_readout=IC50 observed_value=2210

Task: Would you mind telling me what IC50 value was observed for Cc1ccc2oc(=O)c(CCC(=O)NO)cc2c1 ?
Result: 1300

Task: Would you mind telling me what IC50 value was observed for Cc1ccc2oc(=O)c(CC(Cc3ccccc3)C(=O)NO)cc2c1 (stereo not given) ?
Result: 540

Task: Would you mind telling me what IC50 value was observed for Cc1ccc2oc(=O)c(CC(C)C(=O)NO)cc2c1 (stereo not given) ?
Result: 320

Task: Would you mind telling me what IC50 value was observed for O=C(CCc1cc2cc(Cl)ccc2oc1=O)NO ?
Result: 25600

Task: Would you mind telling me what IC50 value was observed for C/C=C/C=C\C=C1\C=C(CCC(=O)NO)C(=O)OC1 ?
Result: 8800

----------
pIC50 listing for selected compounds.
# Target Desc: 72 kDa type IV collagenase (Homo sapiens, UniProt P08253)
# Sequence (P08253 whole entry): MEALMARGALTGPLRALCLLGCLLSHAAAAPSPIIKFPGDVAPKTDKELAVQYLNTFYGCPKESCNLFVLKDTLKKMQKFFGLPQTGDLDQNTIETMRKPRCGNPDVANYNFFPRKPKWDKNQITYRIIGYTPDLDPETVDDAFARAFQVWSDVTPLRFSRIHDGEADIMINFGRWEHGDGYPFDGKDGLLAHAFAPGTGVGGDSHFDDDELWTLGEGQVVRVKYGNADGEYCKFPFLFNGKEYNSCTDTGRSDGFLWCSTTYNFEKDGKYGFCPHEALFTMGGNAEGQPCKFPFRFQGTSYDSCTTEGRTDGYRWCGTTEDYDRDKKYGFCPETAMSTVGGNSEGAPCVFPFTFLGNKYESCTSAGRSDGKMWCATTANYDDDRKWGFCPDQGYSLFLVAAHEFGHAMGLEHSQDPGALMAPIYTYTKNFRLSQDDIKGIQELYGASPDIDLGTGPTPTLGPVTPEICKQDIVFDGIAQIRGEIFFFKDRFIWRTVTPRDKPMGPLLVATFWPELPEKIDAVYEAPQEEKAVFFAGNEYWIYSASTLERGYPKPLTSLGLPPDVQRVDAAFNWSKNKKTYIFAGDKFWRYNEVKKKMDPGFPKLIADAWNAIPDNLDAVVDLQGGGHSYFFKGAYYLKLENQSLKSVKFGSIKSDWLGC
# Assay Overview: Inhibition of human recombinant MMP2
// pIC50 is dimensionless: -log10 of concentration (M)

compound=O=C(CCc1cc2ccccc2oc1=O)NO experimental_readout=pIC50 observed_value=6.70
compound=C/C=C/C=C\C=C1\C=C(CCC(=O)NO)C(=O)OC1 experimental_readout=pIC50 observed_value=8.22
compound=Cc1ccc2oc(=O)c(CCC(=O)NO)cc2c1 experimental_readout=pIC50 observed_value=6.64
compound=O=C(CCc1cc2cc(Br)ccc2oc1=O)NO experimental_readout=pIC50 observed_value=6.07

Task: Would you mind telling me what pIC50 value was observed for Cc1ccc2oc(=O)c(CC(C)C(=O)NO)cc2c1 (configuration not stated) ?
Result: 5.98

Task: Would you mind telling me what pIC50 value was observed for COc1ccc2oc(=O)c(CCC(=O)NO)cc2c1 ?
Result: 6.23

Task: Would you mind telling me what pIC50 value was observed for O=C(CCc1cc2cc(Cl)ccc2oc1=O)NO ?
Result: 5.83

----------
# Target Desc: Disintegrin and metalloproteinase domain-containing protein 17 (Homo sapiens, UniProt P78536)
# Sequence (P78536 whole entry, the tested form may be a part): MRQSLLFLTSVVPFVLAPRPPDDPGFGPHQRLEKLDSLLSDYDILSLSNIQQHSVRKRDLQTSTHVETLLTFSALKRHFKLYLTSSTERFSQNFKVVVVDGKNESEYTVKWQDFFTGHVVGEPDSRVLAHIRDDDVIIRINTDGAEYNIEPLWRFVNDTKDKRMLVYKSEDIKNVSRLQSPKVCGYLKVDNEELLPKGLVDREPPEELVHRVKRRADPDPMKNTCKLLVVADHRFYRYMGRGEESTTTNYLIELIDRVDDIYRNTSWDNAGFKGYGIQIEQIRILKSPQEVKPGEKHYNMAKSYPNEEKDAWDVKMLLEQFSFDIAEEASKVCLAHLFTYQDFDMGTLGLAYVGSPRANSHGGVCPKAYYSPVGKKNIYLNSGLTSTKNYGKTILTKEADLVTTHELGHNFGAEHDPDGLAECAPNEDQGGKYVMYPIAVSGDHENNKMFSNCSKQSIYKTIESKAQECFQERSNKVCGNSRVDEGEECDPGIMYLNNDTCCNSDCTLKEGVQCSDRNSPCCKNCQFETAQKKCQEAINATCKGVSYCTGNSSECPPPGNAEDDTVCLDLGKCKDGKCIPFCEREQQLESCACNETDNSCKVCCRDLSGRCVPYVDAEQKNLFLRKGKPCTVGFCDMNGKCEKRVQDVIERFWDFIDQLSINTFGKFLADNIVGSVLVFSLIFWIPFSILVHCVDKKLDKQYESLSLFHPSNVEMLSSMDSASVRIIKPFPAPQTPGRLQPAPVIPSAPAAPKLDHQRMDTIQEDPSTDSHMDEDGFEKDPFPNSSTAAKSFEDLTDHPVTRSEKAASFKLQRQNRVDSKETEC
Experimental Readout: IC50 (nM)
Just the number please, in nM, no unit attached.

molecule=O=C(CCc1cc2cc(Br)ccc2oc1=O)NO experimental_readout=IC50 observed_value=840
molecule="Cc1ccc2oc(=O)c(CC(C)C(=O)NO)cc2c1 (stereo unspecified)" experimental_readout=IC50 observed_value=3
molecule=O=C(CCc1cc2ccccc2oc1=O)NO experimental_readout=IC50 observed_value=150
molecule="Cc1ccc2oc(=O)c(CC(Cc3ccccc3)C(=O)NO)cc2c1 (stereo unspecified)" experimental_readout=IC50 observed_value=5
molecule="C=CCC(Cc1cc2cc(C)ccc2oc1=O)C(=O)NO (stereo unspecified)" experimental_readout=IC50 observed_value=30
molecule=COc1ccc2oc(=O)c(CCC(=O)NO)cc2c1 experimental_readout=IC50 observed_value=110
molecule=O=C(CCc1cc2cc(Cl)ccc2oc1=O)NO experimental_readout=IC50 observed_value=550
molecule=Cc1ccc2oc(=O)c(CCC(=O)NO)cc2c1 experimental_readout=IC50 observed_value=60

Task: Would you mind telling me what IC50 value was observed for CC(C)(C)c1ccc2oc(=O)c(CCC(=O)NO)cc2c1 ?
Result: 12400

Task: Would you mind telling me what IC50 value was observed for COc1ccc2oc(=O)c(CC(C)C(=O)NO)cc2c1 (stereo unspecified) ?
Result: 36

Task: Would you mind telling me what IC50 value was observed for C/C=C/C=C\C=C1\C=C(CCC(=O)NO)C(=O)OC1 ?
Result: 28
